Tested on: USP8 MIT domain
Assay remarks: SPOT array of predicted peptides from known interactors, USP8 MIT domain
Format: binding, human
Conditions used: Supplementary Fig. 4B, normalized to the highest intensity and corrected for background
Observable: Percentage (%)
Numeric only. Scale: %

[Q] Need Percentage (%), item SQKELESYMMRAQQLL [SYNE2_853 − 868, Nesprin-2 peptide]
[A] -4

[Q] Need Percentage (%), item AGAALLALLAALCP [EGFR, Epidermal growth factor receptor peptide]
[A] 6

[Q] Need Percentage (%), item NKTLEYKIEILEKT [KIF23, Kinesin-like protein KIF23 peptide]
[A] 7

[Q] Need Percentage (%), item APLLCLALLPALAA [NOTCH1, Neurogenic locus notch homolog protein 1 peptide]
[A] 2

[Q] Need Percentage (%), item RFVVALVLLNVAAA [TGOLN2, Trans-Golgi network integral membrane protein 2 peptide]
[A] -5

[Q] Need Percentage (%), item QAAIALSLLESPKI [USP28, Ubiquitin carboxyl-terminal hydrolase 28 peptide]
[A] 1

[Q] Need Percentage (%), item SGETDLKLLEESIA [NR3C1, Glucocorticoid receptor peptide]
[A] -4

[Q] Need Percentage (%), item DDLSRRFEELKKKT [IST1, IST1 homolog peptide]
[A] 5

[Q] Need Percentage (%), item KEPDALTLLAPAAG [HIF1A, Hypoxia-inducible factor 1-alpha peptide]
[A] 0

[Q] Need Percentage (%), item DKEIDLELLQDLME [BIRC6, Baculoviral IAP repeat-containing protein 6 peptide]
[A] 12

[Q] Need Percentage (%), item TEQETLALLEVKRS [TMEM79, Transmembrane protein 79 peptide]
[A] -4

[Q] Need Percentage (%), item GELLLLSLLLLLEP [PDGFRB, Platelet-derived growth factor receptor beta peptide]
[A] -3

[Q] Need Percentage (%), item RPHDIFRQRKQNT [VIRMA, Protein virilizer homolog peptide]
[A] 7

[Q] Need Percentage (%), item PQYTNLGLLNSMDQ [TP63 A14, Tumor protein 63 peptide, array position A14]
[A] 8

[Q] Need Percentage (%), item YVDLDAFLLEHGLPPS [DBP116 − 131]
[A] 67

[Q] Need Percentage (%), item SEENGLPLLVLPPP [SHANK1 A11, SHANK1 peptide, array position A11]
[A] -6

[Q] Need Percentage (%), item DPSNNFRLHNGRS [CFLAR, CASP8 and FADD-like apoptosis regulator peptide]
[A] 31

[Q] Need Percentage (%), item APPSLLLLLLAQLV [FZD5, Frizzled-5 peptide]
[A] 24

====

Tgt: USP8 Rhod domain (Homo sapiens)
Construct: USP8 Rhod (174–317) (UniProt: P40818); GST (cleaved yes); made in house; host or cells: Escherichia coli BL21-Gold (DE3)
Sequence (P40818 174-317): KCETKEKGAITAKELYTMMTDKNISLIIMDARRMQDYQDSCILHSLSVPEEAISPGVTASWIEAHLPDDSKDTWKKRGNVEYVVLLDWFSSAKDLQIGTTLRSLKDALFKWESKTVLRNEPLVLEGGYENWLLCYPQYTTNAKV
Assay remarks: Peptide-phage display-based deep mutational scanning (DMS), USP8 Rhod domain
Format: binding
Conditions used: wild type/mutant pair; bait USP8_Rhodanese__P40818_174_317; vs hit_library_peptide_wt GLALWEAKMKQLAERA; negative where mutant fraction exceeds wild type; ProP-PD pairs (sheet S7.B)
Label scheme for hit_pair_ratio: bottom bin = under 20, middle bin = from 20 up to 600, top bin = 600 and over

[Q] For this sequence, which bin applies? GLALWETKMKQLAERA
[A] bottom bin

[Q] For this sequence, which bin applies? GLALWEFKMKQLAERA
[A] top bin

[Q] For this sequence, which bin applies? GLALWEAPMKQLAERA
[A] middle bin

[Q] For this sequence, which bin applies? GLALWEAKFKQLAERA
[A] middle bin

[Q] For this sequence, which bin applies? GLALWESKMKQLAERA
[A] middle bin

[Q] For this sequence, which bin applies? GLDLWEAKMKQLAERA
[A] bottom bin

[Q] For this sequence, which bin applies? GLALMEAKMKQLAERA
[A] bottom bin

[Q] For this sequence, which bin applies? GLALTEAKMKQLAERA
[A] top bin

[Q] For this sequence, which bin applies? GLAIWEAKMKQLAERA
[A] bottom bin

[Q] For this sequence, which bin applies? GLALWEAKPKQLAERA
[A] middle bin

[Q] For this sequence, which bin applies? GLANWEAKMKQLAERA
[A] bottom bin

[Q] For this sequence, which bin applies? KLALWEAKMKQLAERA
[A] middle bin

[Q] For this sequence, which bin applies? GLALWEAKAKQLAERA
[A] bottom bin

[Q] For this sequence, which bin applies? GLAVWEAKMKQLAERA
[A] bottom bin

[Q] For this sequence, which bin applies? GLHLWEAKMKQLAERA
[A] middle bin

[Q] For this sequence, which bin applies? GLILWEAKMKQLAERA
[A] top bin

[Q] For this sequence, which bin applies? GLALWEPKMKQLAERA
[A] middle bin

[Q] For this sequence, which bin applies? RLALWEAKMKQLAERA
[A] top bin

[Q] For this sequence, which bin applies? GLAMWEAKMKQLAERA
[A] bottom bin

[Q] For this sequence, which bin applies? GLALWGAKMKQLAERA
[A] middle bin

[Q] For this sequence, which bin applies? GAALWEAKMKQLAERA
[A] top bin

[Q] For this sequence, which bin applies? QLALWEAKMKQLAERA
[A] middle bin

[Q] For this sequence, which bin applies? GLALWEAKLKQLAERA
[A] top bin

[Q] For this sequence, which bin applies? GLALWEAQMKQLAERA
[A] top bin

[Q] For this sequence, which bin applies? GLMLWEAKMKQLAERA
[A] middle bin

[Q] For this sequence, which bin applies? GLGLWEAKMKQLAERA
[A] middle bin

[Q] For this sequence, which bin applies? GLWLWEAKMKQLAERA
[A] middle bin

[Q] For this sequence, which bin applies? GLAKWEAKMKQLAERA
[A] top bin

[Q] For this sequence, which bin applies? GLALWEAKRKQLAERA
[A] middle bin

[Q] For this sequence, which bin applies? GTALWEAKMKQLAERA
[A] top bin

====

Test system: USP8 MIT domain
Assay remarks: Peptide-phage display-based deep mutational scanning (DMS), USP8 MIT domain
Assay type: binding, human
Conditions used: sheet S3.B_ProP-PD_pairs; bait USP8_MIT__P40818_1_142; ratio within the wild-type/mutant pair, larger over smaller averaged fraction (direction from fraction_wt and fraction_mut)
Could you mark each record Yes if its hit_pair_ratio falls strictly under 20, and No if it equals or exceeds it?

[Q] Is hit_pair_ratio of SSVSDIESRIAALRAA strictly below 20?
[A] No

[Q] Is hit_pair_ratio of MDDDYEAYNSLFLSLL strictly below 20?
[A] No

[Q] Is hit_pair_ratio of AEVSDIESRIAALRAA strictly below 20?
[A] No

[Q] Is hit_pair_ratio of LEVSDIESRIAALRAA strictly below 20?
[A] Yes

[Q] Is hit_pair_ratio of SNVSDIESRIAALRAA strictly below 20?
[A] Yes

[Q] Is hit_pair_ratio of MDDDYEAYISLFLSLL strictly below 20?
[A] Yes

[Q] Is hit_pair_ratio of SELSDIESRIAALRAA strictly below 20?
[A] Yes

[Q] Is hit_pair_ratio of MDDDYEAYHSGFLSLL strictly below 20?
[A] No

[Q] Is hit_pair_ratio of MDDDYEAYHKLFLSLL strictly below 20?
[A] No

====

Test system: USP8 MIT domain
Assay remarks: Peptide-phage display-based deep mutational scanning (DMS), USP8 MIT domain
Type: binding, human
Conditions used: sheet S3.B_ProP-PD_pairs; bait USP8_MIT__P40818_1_142; ratio within the wild-type/mutant pair, larger over smaller averaged fraction (direction from fraction_wt and fraction_mut)
Hi, to clarify the labels: Fulfilled covers hit_pair_ratio from 40 upward, Not fulfilled covers anything below 40.

[Q] Exam item: decide whether the reported hit_pair_ratio for MDDDYEAYDSLFLSLL is at least 40.
[A] Fulfilled

[Q] Exam item: decide whether the reported hit_pair_ratio for MDDDYEAFHSLFLSLL is at least 40.
[A] Not fulfilled

[Q] Exam item: decide whether the reported hit_pair_ratio for MDDDYEAYHSLFLSPL is at least 40.
[A] Not fulfilled

[Q] Exam item: decide whether the reported hit_pair_ratio for MDDDYEYYHSLFLSLL is at least 40.
[A] Not fulfilled

[Q] Exam item: decide whether the reported hit_pair_ratio for MDDDYEAYHSLFLTLL is at least 40.
[A] Not fulfilled

[Q] Exam item: decide whether the reported hit_pair_ratio for EEVSDIESRIAALRAA is at least 40.
[A] Not fulfilled

[Q] Exam item: decide whether the reported hit_pair_ratio for SKVSDIESRIAALRAA is at least 40.
[A] Not fulfilled

[Q] Exam item: decide whether the reported hit_pair_ratio for MDDDYEANHSLFLSLL is at least 40.
[A] Fulfilled

[Q] Exam item: decide whether the reported hit_pair_ratio for MDDDYEASHSLFLSLL is at least 40.
[A] Fulfilled

[Q] Exam item: decide whether the reported hit_pair_ratio for MDDDYEAYHSLFLSRL is at least 40.
[A] Fulfilled

[Q] Exam item: decide whether the reported hit_pair_ratio for MDDDYEAWHSLFLSLL is at least 40.
[A] Not fulfilled

[Q] Exam item: decide whether the reported hit_pair_ratio for MDDDYEAYKSLFLSLL is at least 40.
[A] Fulfilled

[Q] Exam item: decide whether the reported hit_pair_ratio for MDDDYEATHSLFLSLL is at least 40.
[A] Not fulfilled

[Q] Exam item: decide whether the reported hit_pair_ratio for MDDDYEAYHSLFISLL is at least 40.
[A] Not fulfilled

[Q] Exam item: decide whether the reported hit_pair_ratio for MDDDYEAYHELFLSLL is at least 40.
[A] Fulfilled

[Q] Exam item: decide whether the reported hit_pair_ratio for FEVSDIESRIAALRAA is at least 40.
[A] Not fulfilled

[Q] Exam item: decide whether the reported hit_pair_ratio for MDDDYEAYHSLFGSLL is at least 40.
[A] Fulfilled

[Q] Exam item: decide whether the reported hit_pair_ratio for MDDDYEAYHSLSLSLL is at least 40.
[A] Fulfilled
